- Test system: MKN-45
- method_notes: Cell viability / antiproliferative assay (WST-8), MKN-45
- measurement_setup: Homo sapiens, MKN-45, 72 h, read-out: MKN-45 IC50
measured_metric: IC50

compound: Cc1nn(C2CCC(=O)NC2=O)c(=O)c2cc(N3CCC(CN4CCN(CC(=O)N5CCC(COc6cnc(-c7cccc(Cn8nc(-c9cccc(C#N)c9)ccc8=O)c7)nc6)CC5)CC4)CC3)ccc12 (stereo not drawn)
measured_metric: IC50
result: < 100 nM
//
compound: Cn1cc(-c2cnc3c(nnn3C[C@@H]3CN(c4ncc(-c5ccc(CN6CCN(C(=O)COCCOCCOCCNc7ccc8c(=O)n(C9CCC(=O)NC9=O)ncc8c7)CC6)cc5)cn4)CCO3)n2)cn1 (stereo partly drawn)
measured_metric: IC50
result: 100 to 1000 nM

Lab note: next compound to report on.
Ask | // IC50 lookup, key: N#Cc1cccc(-c2ccc(=O)n(Cc3cccc(-c4ncc(OCC5CCN(C(=O)CCOCCOCCOCCOCCNc6cccc7cnn(C8CCC(=O)NC8=O)c(=O)c67)CC5)cn4)c3)n2)c1 (stereo not drawn)
Reply | < 100 nM

---

- Test system: MKN-45
- method_notes: Cell viability / antiproliferative assay (WST-8), MKN-45
- measurement_setup: Homo sapiens, MKN-45, 72 h, read-out: MKN-45 IC50
pIC50: −log10 of the molar value.
measured_metric: pIC50

compound: N#Cc1cccc(-c2ccc(=O)n(Cc3cccc(-c4ncc(OCC5CCN(CC(=O)N6CCN(c7ccc8c(=O)n(C9CCC(=O)NC9=O)ncc8c7)CC6)CC5)cn4)c3)n2)c1 (stereo not drawn)
result: > 7.00
--
compound: Cc1nn(C2CCC(=O)NC2=O)c(=O)c2ccc(N3CCN(CC(=O)N4CCC(COc5cnc(-c6cccc(Cn7nc(-c8cccc(C#N)c8)ccc7=O)c6)nc5)CC4)CC3)cc12 (stereo not drawn)
result: > 7.00

Ask | I am curious: what pIC50 value has been reported for Cc1nn(C2CCC(=O)NC2=O)c(=O)c2ccc(N3CCN(c4ccc(NC(=O)CN5CCC(COc6cnc(-c7cccc(Cn8nc(-c9cccc(C#N)c9)ccc8=O)c7)nc6)CC5)cc4)CC3)cc12 (stereo not drawn) ?
Reply | > 7.00

---

Catalogue of molecules with associated IC50
- System: MKN-45
- method_notes: Cell viability / antiproliferative assay (WST-8), MKN-45
- measurement_setup: Homo sapiens, MKN-45, 72 h, read-out: MKN-45 IC50

molecule: Cn1cc(-c2cnc3c(nnn3C[C@@H]3CN(c4ncc(-c5ccc(CN6CCN(C(=O)CCOCCOCCNc7cccc8cnn(C9CCC(=O)NC9=O)c(=O)c78)CC6)cc5)cn4)CCO3)n2)cn1 (stereo partly drawn)
IC50: 100 to 1000 nM
//
molecule: Cc1nn(C2CCC(=O)NC2=O)c(=O)c2c(NCC(=O)N3CCC(COc4cnc(-c5cccc(Cn6nc(-c7cccc(C#N)c7)ccc6=O)c5)nc4)CC3)cccc12 (stereo not drawn)
IC50: < 100 nM

Ask | Reported IC50 for Cc1nn(C2CCC(=O)NC2=O)c(=O)c2ccc(NCCCCCC(=O)N3CCC(COc4cnc(-c5cccc(Cn6nc(-c7cccc(C#N)c7)ccc6=O)c5)nc4)CC3)cc12 (stereo not drawn) : what is it?
Reply | 100 to 1000 nM

---

Below: a set of entries, each annotated with reported IC50.
- System: MKN-45
- method_notes: Cell viability / antiproliferative assay (WST-8), MKN-45;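 also: MKN-45 is a human gastric cancer line overexpressing c-MET, growth inhibition read as WST-8 formazan absorbance at 450 nm after 2 h dye incubation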
- measurement_setup: read-out: MKN-45 IC50; MKN-45 cells, 72 hours, WST-8; Table 1

Some entries whose results are on file:
compound: Cn1cc(-c2cnc3c(nnn3C[C@@H]3CN(c4ncc(-c5ccc(CN6CCN(C(=O)COCCOCCOCCOCCNc7ccc8c(=O)n(C9CCC(=O)NC9=O)ncc8c7)CC6)cc5)cn4)CCO3)n2)cn1 (stereo partly drawn)
IC50: 100 to 1000 nM

compound: Cn1cc(-c2cnc3c(nnn3C[C@@H]3CN(c4ncc(-c5ccc(CN6CCN(C(=O)CCOCCOCCOCCOCCNc7cccc8cnn(C9CCC(=O)NC9=O)c(=O)c78)CC6)cc5)cn4)CCO3)n2)cn1 (stereo partly drawn)
IC50: 100 to 1000 nM

Then there is this compound:
Ask | State the recorded IC50 for this entry: Cn1cc(-c2cnc3c(nnn3C[C@@H]3CN(c4ncc(-c5ccc(CN6CCN(C(=O)CCOCCOCCOCCOCCOCCOCCNc7cccc8cnn(C9CCC(=O)NC9=O)c(=O)c78)CC6)cc5)cn4)CCO3)n2)cn1 (stereo partly drawn)
Reply | 100 to 1000 nM

---

Below, each entry is listed alongside its reported DC50.
- experimental_target: c-MET (Homo sapiens, UniProt P08581)
- Sequence (P08581 25-1390): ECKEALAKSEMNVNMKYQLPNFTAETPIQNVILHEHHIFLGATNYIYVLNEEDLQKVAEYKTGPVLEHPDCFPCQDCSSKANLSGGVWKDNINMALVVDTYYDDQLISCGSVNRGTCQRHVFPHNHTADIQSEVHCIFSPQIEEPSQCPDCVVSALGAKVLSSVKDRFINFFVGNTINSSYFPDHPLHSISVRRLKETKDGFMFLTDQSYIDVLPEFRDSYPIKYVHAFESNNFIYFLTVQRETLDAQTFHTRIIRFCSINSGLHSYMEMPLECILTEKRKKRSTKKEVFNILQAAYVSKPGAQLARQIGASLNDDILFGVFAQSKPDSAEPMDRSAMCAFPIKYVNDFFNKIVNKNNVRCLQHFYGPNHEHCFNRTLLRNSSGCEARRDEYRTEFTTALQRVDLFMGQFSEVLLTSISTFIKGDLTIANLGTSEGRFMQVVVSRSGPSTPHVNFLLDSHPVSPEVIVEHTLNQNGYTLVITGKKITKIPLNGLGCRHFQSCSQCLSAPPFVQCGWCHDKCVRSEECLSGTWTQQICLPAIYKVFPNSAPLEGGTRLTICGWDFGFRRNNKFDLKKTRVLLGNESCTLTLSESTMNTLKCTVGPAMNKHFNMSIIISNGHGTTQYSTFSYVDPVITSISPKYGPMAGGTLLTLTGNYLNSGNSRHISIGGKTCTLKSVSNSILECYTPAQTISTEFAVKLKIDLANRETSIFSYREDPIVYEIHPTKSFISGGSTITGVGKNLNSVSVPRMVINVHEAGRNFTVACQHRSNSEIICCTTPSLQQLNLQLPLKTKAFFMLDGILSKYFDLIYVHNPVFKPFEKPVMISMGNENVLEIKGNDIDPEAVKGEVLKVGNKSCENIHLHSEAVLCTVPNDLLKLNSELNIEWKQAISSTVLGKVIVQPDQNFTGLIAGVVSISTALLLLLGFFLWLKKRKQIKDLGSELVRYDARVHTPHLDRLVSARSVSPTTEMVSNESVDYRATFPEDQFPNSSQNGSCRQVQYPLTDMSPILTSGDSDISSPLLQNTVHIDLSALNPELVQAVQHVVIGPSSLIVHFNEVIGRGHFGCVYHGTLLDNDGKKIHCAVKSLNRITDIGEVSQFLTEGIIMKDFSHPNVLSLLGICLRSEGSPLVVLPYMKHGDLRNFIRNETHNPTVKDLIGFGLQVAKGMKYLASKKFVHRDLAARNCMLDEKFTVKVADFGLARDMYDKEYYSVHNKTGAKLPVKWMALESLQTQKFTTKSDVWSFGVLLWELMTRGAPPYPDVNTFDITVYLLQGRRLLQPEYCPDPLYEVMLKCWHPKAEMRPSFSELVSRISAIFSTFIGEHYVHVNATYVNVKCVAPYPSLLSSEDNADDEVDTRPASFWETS
- method_notes: c-MET protein degradation (Simple Western), SNU-638
- Assay type: cell-based
- Parameters: assess the resolution of the compound of the present invention for c-MET expressed in cells; endogenous in cells; host or cells: SNU638 (human gastric cancer)
- measurement_setup: c-MET overexpressing gastric cancer cell line SNU-638, treated 24 hours; Table 2

compound: N#Cc1cccc(-c2ccc(=O)n(Cc3cccc(-c4ncc(OCC5CCN(CCN6CCN(c7ccc(NC8CCC(=O)NC8=O)cc7F)CC6)CC5)cn4)c3)n2)c1 (stereo not shown) [ICT-0001433]
DC50: < 0.1 µM
//
compound: N#Cc1cccc(-c2ccc(=O)n(Cc3ccc(-c4ncc(OCC5CCN(CCCC#Cc6cccc7c(=O)n(C8CCC(=O)NC8=O)ncc67)CC5)cn4)cc3)n2)c1 (stereo not shown) [ICT-0001303]
DC50: 0.1 to 1 µM
//
compound: Cc1nn(C2CCC(=O)NC2=O)c(=O)c2c(NCC(=O)N3CCC(CN4CCC(COc5cnc(-c6cccc(Cn7nc(-c8cccc(C#N)c8)ccc7=O)c6)nc5)CC4)CC3)cccc12 (stereo not shown) [ICT-0000980]
DC50: > 1 µM

Lab note: next compound to report on.
Ask | I'm curious: which DC50 was measured for Cc1nn(C2CCC(=O)NC2=O)c(=O)c2ccc(N3CCN(CCN4CCC(COc5cnc(-c6cccc(Cn7nc(-c8cccc(C#N)c8)ccc7=O)c6)nc5)CC4)CC3)cc12 (stereo not shown) [ICT-0001277] tested on c-MET (Homo sapiens, UniProt P08581)?
Reply | < 0.1 µM

---

- experimental_target: c-MET (Homo sapiens, UniProt P08581)
- method_notes: c-MET protein degradation (Simple Western), SNU-638
- Type: cell-based
- Parameters: assess the resolution of the compound of the present invention for c-MET expressed in cells; endogenous in cells; host or cells: SNU638 (human gastric cancer)
- measurement_setup: c-MET overexpressing gastric cancer cell line SNU-638, treated 24 hours; Table 2
- Experimental: In order to assess the resolution of the compound of the present invention for c-MET expressed in cells, cells were dispensed in a 12-well plate at a concentration of 2 × 10^5 cells/well, and then gastric cancer cell lines were treated with samples for 24 hours and lung cancer cell lines were treated for 48 hours. […] Protein expression was then measured using the Simple Western Automated Western Blot System Abby instrument using 3 µg of protein for each sample. […]
We begin with a simple list: items and their reported DC50.

Example entries and their recorded answers appear below.
compound: N#Cc1cccc(-c2ccc(=O)n(Cc3cccc(-c4ncc(OCC5CCN(c6ccc(NC7CCC(=O)NC7=O)cc6F)CC5)cn4)c3)n2)c1 (centres unmarked) [ICT-0001383]
experimental_target: c-MET (Homo sapiens, UniProt P08581)
result: < 100 nM

compound: N#Cc1cccc(-c2ccc(=O)n(Cc3cccc(-c4ncc(OCC5CCN(CC6CN(c7ccc(NC8CCC(=O)NC8=O)cc7F)C6)CC5)cn4)c3)n2)c1 (centres unmarked) [ICT-0001425]
experimental_target: c-MET (Homo sapiens, UniProt P08581)
result: < 100 nM

compound: N#Cc1cccc(-c2ccc(=O)n(Cc3cccc(-c4ncc(OCC5CCN(CC(=O)N6CCN(CC7CCN(c8ccc(NC9CCC(=O)NC9=O)cc8F)CC7)CC6)CC5)cn4)c3)n2)c1 (centres unmarked) [ICT-0001468]
experimental_target: c-MET (Homo sapiens, UniProt P08581)
result: 100 to 1000 nM

compound: N#Cc1cccc(-c2ccc(=O)n(Cc3cccc(-c4ncc(OCC5CCN(C(=O)CN6CCN(c7ccc(NC8CCC(=O)NC8=O)cc7F)CC6)CC5)cn4)c3)n2)c1 (centres unmarked) [ICT-0001494]
experimental_target: c-MET (Homo sapiens, UniProt P08581)
result: < 100 nM

compound: N#Cc1cccc(-c2ccc(=O)n(Cc3cccc(-c4ncc(-c5cccc(CN6CCN(c7ccc(C8CCC(=O)NC8=O)cn7)CC6)c5)cn4)c3)n2)c1 (centres unmarked) [ICT-0001449]
experimental_target: c-MET (Homo sapiens, UniProt P08581)
result: > 1000 nM

compound: Cc1nn(C2CCC(=O)NC2=O)c(=O)c2cc(N3CCN(CC4CCN(CCN5CCC(COc6cnc(-c7cccc(Cn8nc(-c9cccc(C#N)c9)ccc8=O)c7)nc6)CC5)CC4)CC3)c(F)cc12 (centres unmarked) [ICT-0001326]
experimental_target: c-MET (Homo sapiens, UniProt P08581)
result: > 1000 nM

Ask | // lookup DC50 for Cc1nn(C2CCC(=O)NC2=O)c(=O)c2ccc(N3CCN(C4CN(CCN5CCC(COc6cnc(-c7cccc(Cn8nc(-c9cccc(C#N)c9)ccc8=O)c7)nc6)CC5)C4)CC3)cc12 (centres unmarked) [ICT-0001325]
Reply | > 1000 nM

Ask | Continue with Cc1nn(C2CCC(=O)NC2=O)c(=O)c2ccc(N3CCN(C(=O)C4CCN(CC(=O)N5CCC(COc6cnc(-c7cccc(Cn8nc(-c9cccc(C#N)c9)ccc8=O)c7)nc6)CC5)CC4)CC3)cc12 (centres unmarked) [ICT-0001218]
Reply | < 100 nM

Ask | Next entry: N#Cc1cccc(-c2ccc(=O)n(Cc3cccc(-c4ncc(OCC5CCN(CC(=O)N6CCC(CN7CCN(c8ccc(NC9CCC(=O)NC9=O)cc8F)CC7)CC6)CC5)cn4)c3)n2)c1 (centres unmarked) [ICT-0001447]
Reply | 100 to 1000 nM

Ask | Try this compound too: N#Cc1cccc(-c2ccc(=O)n(Cc3cccc(-c4ncc(OCC5CCN(CC(=O)N6CC(N7CCN(c8ccc9c(=O)n(C%10CCC(=O)NC%10=O)ncc9c8)CC7)C6)CC5)cn4)c3)n2)c1 (centres unmarked) [ICT-0001232]
Reply | < 100 nM

Ask | Can you check N#Cc1cccc(-c2ccc(=O)n(Cc3cccc(-c4ncc(N5CCN(CC6CCN(c7ccc(NC8CCC(=O)NC8=O)cc7F)CC6)CC5)cn4)c3)n2)c1 (centres unmarked) [ICT-0001402] next?
Reply | < 100 nM
